Just for reference, PubChem BioAssay (NCI) is where these values come from.

growth listing for selected compounds.
# Test system: TK-10 renal
# procedure-details: NCI-60 one-dose screen, 48 h (100 = growth as untreated, 0 = no growth, -100 = all killed)
# condition-info: 10 µM unless noted
Compounds without any hit were thinned out: in the full panel of roughly 83,000, 20% have a hit.
Numbers only here, please. The scale is %.

O=C(/C=C/c1ccc[nH]1)c1ccc(-n2ccc(C(F)(F)F)n2)cc1	103
COc1cc(C2CC(c3cccc(Nc4ccncc4)c3)=NN2c2ccc(Cl)cc2)cc(OC)c1OC (configuration not stated)	68.4
COc1ccc(Cc2nc3cc(OC)c(OC)cc3c(=O)[nH]2)cc1	237
O=C(Nc1nc2ccc(C(=O)N3CCN(c4ccc(Cl)c(Cl)c4)CC3)cc2s1)c1ccc(NCCc2ccccc2)c([N+](=O)[O-])c1	113
Cc1cc(Nc2cccc(C(F)(F)F)c2)n2c(nc3ccccc32)c1C#N	58.3
Cc1nccc2c3ccc(OCc4cn(-c5ccc(Cl)cc5)nn4)cc3n(CCCc3ccccc3)c12	-16.1
c1ccc(-c2nn(-c3ccccc3)[n+](-c3ccccc3-c3ccccc3)n2)cc1	26
CS(=O)(=O)c1ccc(-c2cc(-c3nnc(SCC(=O)Nc4ccc(C(=O)/C=C/c5ccc(Cl)cc5)cc4)n3-c3ccccc3)c3ccccc3n2)cc1	99.3
CN1C2CCC1CN(c1cnc(C(=O)Nc3cc(F)cc4cccnc34)cn1)C2	77.2
COc1ccccc1/C=C1\COc2ccc(-c3ccccc3)cc2C1=O	52

Q. GET growth | system: TK-10 renal | item: CCCCCCCCCCCCCCCCCCOc1ccccc1N
A. 103

Q. Param request: growth | system TK-10 renal | item O=C(N=Nc1c(O)[nH]c2ccc(F)cc12)c1cc2ccccc2[nH]1
A. 106

Q. For TK-10 renal, give growth of the listed compound: O=S(=O)(NCCNc1nccc(-c2c(-c3ccc(F)c(O)c3)nc3sccn23)n1)c1ccccc1
A. 138

Q. Write down measured growth (TK-10 renal) for this compound. Cc1cc(C)c(C=O)c(C)c1
A. 103

Q. Report value only: growth, TK-10 renal, O=C(Nc1ccc2ncnc(Nc3ccc(Oc4cccc(F)c4)c(Cl)c3)c2c1)c1ccc(CNCCO)cc1
A. 57.1

Q. State recorded growth with TK-10 renal, entry CCn1ccnc1C(=O)/C=C/c1ccc(CC(=O)Nc2ccc(F)cc2)cc1 , no comment.
A. 66.3

Q. Report the value of growth obtained on TK-10 renal for Cn1c(COC(=O)N2CCCCC2)nc2c(N3CCOCC3)nc(-c3ccccc3)nc21 .
A. -86.2
